Tested on: corn
protocol: Test A preemergence
Type: in vivo, Zea mays
settings: 125 g ai/ha
The following compounds are shown together with reported Corn plant response rating (0 to 100 scale) values.
metric: Corn plant response rating (0 to 100 scale)

INSERT INTO results (compound, data_value) VALUES
  ('C#Cc1cccc(Oc2ncc(Cl)cn2)c1-n1cc(Br)cn1 [Compound 199]', 0),
  ('NN=Cc1cccc(Oc2ncc(Cl)cn2)c1-n1cc(Br)cn1 [Compound 288]', 0),
  ('COc1cnc(Oc2ccccc2-n2cccn2)nc1 [Compound 227]', 0),
  ('N#Cc1cnn(-c2c(C#N)cccc2Oc2ncc(Cl)cn2)c1 [Compound 200]', 40),
  ('Fc1cc(Oc2ncc(Cl)cn2)c(-n2cc(Br)cn2)cc1F [Compound 196]', 0),
  ('O=Cc1cccc(Oc2ncc(Br)cn2)c1-n1cc(Cl)cn1 [Compound 206]', 0),
  ('Clc1cnc(Oc2cccc(Br)c2-n2cc(Cl)cn2)nc1 [Compound 221]', 0),
  ('Fc1cnc(Oc2ccccc2-n2cc(C(F)F)cn2)nc1 [Compound 228]', 0);

---

System: waterhemp
protocol: Test C postemergence
Format: in vivo, Amaranthus rudis
settings: Postemergence, 31 g ai/ha; scale 0 to 100 (0 no effect, 100 complete control); 13 to 15 days
metric: Plant response rating, Waterhemp

INSERT INTO measurements (substance_smiles, data_value) VALUES
  ('N#Cc1cccc(Oc2ncc(Cl)cn2)c1-n1cc(Cl)cn1', 75),
  ('FC(F)Oc1cnn(-c2ccccc2Oc2ncc(Cl)cn2)c1', 50),
  ('Fc1cnc(Oc2ccccc2-n2cc(C(F)(F)F)cn2)nc1', 100),
  ('N#Cc1cccc(Oc2ncc(Br)cn2)c1-n1cc(Br)cn1', 75),
  ('N#Cc1cccc(Oc2ncc(Cl)cn2)c1-n1cc(OC(F)F)cn1', 85);

---

Form field: Foxtail, Giant plant response rating (one value per entry).
Tested on: giant foxtail
protocol: Test A postemergence
Format: in vivo, Setaria faberii
settings: 125 g ai/ha, 0 to 100 scale where 0 is no effect and 100 is complete control
metric: Foxtail, Giant plant response rating

INSERT INTO results (substance_smiles, metric, data_value) VALUES
  ('CCCOc1cnn(-c2c(F)cccc2Oc2ncc(Cl)cn2)c1', 'Foxtail, Giant plant response rating', 20),
  ('FC(F)c1cnn(-c2c(Cl)cccc2Oc2ncc(Cl)cn2)c1', 'Foxtail, Giant plant response rating', 70),
  ('N#Cc1cnc(Oc2ccccc2-n2cc(Br)cn2)nc1', 'Foxtail, Giant plant response rating', 0),
  ('FC(F)c1cnn(-c2c(Br)cccc2Oc2ncc(Cl)cn2)c1', 'Foxtail, Giant plant response rating', 70),
  ('COc1cnc(Oc2ccccc2-n2cccn2)nc1', 'Foxtail, Giant plant response rating', 0),
  ('COc1cnn(-c2ccccc2Oc2ncc(Cl)cn2)c1', 'Foxtail, Giant plant response rating', 20),
  ('O=Cc1cccc(Oc2ncc(Br)cn2)c1-n1cc(Br)cn1', 'Foxtail, Giant plant response rating', 0);

---

Tested on: galium
protocol: Test C postemergence
Type: in vivo, Galium aparine
settings: 16 g ai/ha, postemergence; 0 is no effect, 100 is complete control
The compounds listed here are annotated with their Plant response rating (0 to 100), Galium.
metric: Plant response rating (0 to 100), Galium

INSERT INTO assay_data (substance_smiles, data_value) VALUES
  ('Clc1cnc(Oc2ccccc2-n2cc(I)nn2)nc1', 70),
  ('Clc1cnc(Oc2cccc(Br)c2-n2cc(I)nn2)nc1', 80),
  ('FC(F)(F)c1cnn(-c2c(Br)cccc2Oc2ncc(Cl)cn2)c1', 80),
  ('Clc1cnc(Oc2cccc(Cl)c2-n2cc(I)cn2)nc1', 60),
  ('Clc1cnc(Oc2cccc(Cl)c2-n2cc(Cl)cn2)nc1', 50),
  ('FC(F)c1cnn(-c2c(Cl)cccc2Oc2ncc(Cl)cn2)c1', 60),
  ('FCc1cccc(Oc2ncc(F)cn2)c1-n1cc(I)cn1', 35);
